Origin of the recorded values: patent US20210147455A1

- Method Description: Stability experiments under 40° C.±2° C. and 75% R.H±5% R.H (accelerated test)
- Format: physicochemical
- Assay Setup: month 3; 40° C./75% R.H
Quick reference: Related substance of the listed items.
Reply numerically in %, unit not repeated.

For orientation, consider the following solved cases.
CC[C@@H]([C@H](C)OP(=O)(O)O)n1ncn(-c2ccc(N3CCN(c4ccc(OC[C@@H]5CO[C@@](Cn6cncn6)(c6ccc(F)cc6F)C5)cc4)CC3)cc2)c1=O [Example 1, Posaconazole Phosphate Monocholinate] = 0.15
CC[C@@H]([C@H](C)OP(=O)(O)O)n1ncn(-c2ccc(N3CCN(c4ccc(OC[C@@H]5CO[C@@](Cn6cncn6)(c6ccc(F)cc6F)C5)cc4)CC3)cc2)c1=O.CNC[C@H](O)[C@@H](O)[C@H](O)[C@H](O)CO [Comparative Example 4] = 0.50
CC[C@@H]([C@H](C)OP(=O)(O)O)n1ncn(-c2ccc(N3CCN(c4ccc(OC[C@@H]5CO[C@@](Cn6cncn6)(c6ccc(F)cc6F)C5)cc4)CC3)cc2)c1=O [Example 3] = 0.14

Here's the next entry for you.
Q: Please indicate Related substance recorded for CCC(C(C)OP(=O)([O-])[O-])n1ncn(-c2ccc(N3CCN(c4ccc(OCC5COC(Cn6cncn6)(c6ccc(F)cc6F)C5)cc4)CC3)cc2)c1=O.C[N+](C)(C)CCO.C[N+](C)(C)CCO.O.O.O.O.O (stereo not shown) [Comparative Example 2]
Ans: 0.21

====

Quick reference: Content of the listed items.
- Method Description: Stability experiments under 25° C.±2° C. and 65% R.H±5% R.H
- Assay Setup: month 24; 25° C./65% R.H
Reply numerically in %, unit not repeated.

For orientation, consider the following solved cases.
CCC(C(C)OP(=O)([O-])[O-])n1ncn(-c2ccc(N3CCN(c4ccc(OCC5COC(Cn6cncn6)(c6ccc(F)cc6F)C5)cc4)CC3)cc2)c1=O.C[N+](C)(C)CCO.C[N+](C)(C)CCO.O.O.O.O.O (stereo not shown) = 99.18
CC[C@@H]([C@H](C)OP(=O)([O-])[O-])n1ncn(-c2ccc(N3CCN(c4ccc(OC[C@@H]5CO[C@@](Cn6cncn6)(c6ccc(F)cc6F)C5)cc4)CC3)cc2)c1=O.C[N+](C)(C)CCO.C[N+](C)(C)CCO [Comparative Example 1, Posaconazole Phosphate Bicholinate] = 99.22
CC[C@@H]([C@H](C)OP(=O)([O-])[O-])n1ncn(-c2ccc(N3CCN(c4ccc(OC[C@@H]5CO[C@@](Cn6cncn6)(c6ccc(F)cc6F)C5)cc4)CC3)cc2)c1=O.O.O.O.O.O.[Na+].[Na+] = 98.87

Q: Please indicate Content recorded for CC[C@@H]([C@H](C)OP(=O)(O)O)n1ncn(-c2ccc(N3CCN(c4ccc(OC[C@@H]5CO[C@@](Cn6cncn6)(c6ccc(F)cc6F)C5)cc4)CC3)cc2)c1=O [Example 3]
Ans: 99.79

Q: Please indicate Content recorded for CC[C@@H]([C@H](C)OP(=O)(O)O)n1ncn(-c2ccc(N3CCN(c4ccc(OC[C@@H]5CO[C@@](Cn6cncn6)(c6ccc(F)cc6F)C5)cc4)CC3)cc2)c1=O [Example 1, Posaconazole Phosphate Monocholinate]
Ans: 99.80

Q: Please indicate Content recorded for CC[C@@H]([C@H](C)OP(=O)(O)O)n1ncn(-c2ccc(N3CCN(c4ccc(OC[C@@H]5CO[C@@](Cn6cncn6)(c6ccc(F)cc6F)C5)cc4)CC3)cc2)c1=O.N=C(N)NCCC[C@H](N)C(=O)O [Comparative Example 5, Posaconazole Phosphate Monoarginine Salt]
Ans: 99.03

Q: Please indicate Content recorded for `CC[C@@H]([C@H](C)OP(=O)(O)O)n1ncn(-c2ccc(N3CCN(c4ccc(OC[C@@H]5CO[C@@](Cn6cncn6)(c6ccc(F)cc6F)C5)cc4)CC3)cc2)c1=O.CNC[C@H](O)[C@@H](O)[C@H](O)[C@H](O)CO`
Ans: 98.98

====

- Method Description: Stability experiments under 25° C.±2° C. and 65% R.H±5% R.H
- Assay Setup: month 9; 25° C./65% R.H
Measurement Label: Description

CC[C@@H]([C@H](C)OP(=O)([O-])[O-])n1ncn(-c2ccc(N3CCN(c4ccc(OC[C@@H]5CO[C@@](Cn6cncn6)(c6ccc(F)cc6F)C5)cc4)CC3)cc2)c1=O.O.O.O.O.O.[Na+].[Na+] [Comparative Example 9] = White
CC[C@@H]([C@H](C)OP(=O)(O)O)n1ncn(-c2ccc(N3CCN(c4ccc(OC[C@@H]5CO[C@@](Cn6cncn6)(c6ccc(F)cc6F)C5)cc4)CC3)cc2)c1=O.CNC[C@H](O)[C@@H](O)[C@H](O)[C@H](O)CO [Comparative Example 4] = White

====

- Method Description: Stability experiments under 40° C.±2° C. and 75% R.H±5% R.H (accelerated test)
- Type: physicochemical
- Assay Setup: month 0; 40° C./75% R.H
Measurement Label: Content (%)
Reply numerically in %, unit not repeated.

CC[C@@H]([C@H](C)OP(=O)(O)O)n1ncn(-c2ccc(N3CCN(c4ccc(OC[C@@H]5CO[C@@](Cn6cncn6)(c6ccc(F)cc6F)C5)cc4)CC3)cc2)c1=O [Example 1, Posaconazole Phosphate Monocholinate] = 99.87
CC[C@@H]([C@H](C)OP(=O)(O)O)n1ncn(-c2ccc(N3CCN(c4ccc(OC[C@@H]5CO[C@@](Cn6cncn6)(c6ccc(F)cc6F)C5)cc4)CC3)cc2)c1=O.CNC[C@H](O)[C@@H](O)[C@H](O)[C@H](O)CO = 99.87

Here's the next entry for you.
Q: Please indicate Content recorded for `CC[C@@H]([C@H](C)OP(=O)([O-])[O-])n1ncn(-c2ccc(N3CCN(c4ccc(OC[C@@H]5CO[C@@](Cn6cncn6)(c6ccc(F)cc6F)C5)cc4)CC3)cc2)c1=O.O.O.O.O.O.[Na+].[Na+]`
Ans: 99.87

====

- Method Description: Stability experiments under 40° C.±2° C. and 75% R.H±5% R.H (accelerated test)
- Format: physicochemical
- Assay Setup: month 2; 40° C./75% R.H
Measurement Label: Description

CC[C@@H]([C@H](C)OP(=O)(O)O)n1ncn(-c2ccc(N3CCN(c4ccc(OC[C@@H]5CO[C@@](Cn6cncn6)(c6ccc(F)cc6F)C5)cc4)CC3)cc2)c1=O [Example 3] = White
CC[C@@H]([C@H](C)OP(=O)(O)O)n1ncn(-c2ccc(N3CCN(c4ccc(OC[C@@H]5CO[C@@](Cn6cncn6)(c6ccc(F)cc6F)C5)cc4)CC3)cc2)c1=O [Example 1, Posaconazole Phosphate Monocholinate] = White
CC[C@@H]([C@H](C)OP(=O)(O)O)n1ncn(-c2ccc(N3CCN(c4ccc(OC[C@@H]5CO[C@@](Cn6cncn6)(c6ccc(F)cc6F)C5)cc4)CC3)cc2)c1=O.N=C(N)NCCC[C@H](N)C(=O)O [Comparative Example 5, Posaconazole Phosphate Monoarginine Salt] = White

====

- Method Description: Stability experiments under 40° C.±2° C. and 75% R.H±5% R.H (accelerated test)
- Type: physicochemical
- Assay Setup: month 2; 40° C./75% R.H
Threshold 0.2%. Related substance below it: met. Related substance at it or above: not met.

CC[C@@H]([C@H](C)OP(=O)(O)O)n1ncn(-c2ccc(N3CCN(c4ccc(OC[C@@H]5CO[C@@](Cn6cncn6)(c6ccc(F)cc6F)C5)cc4)CC3)cc2)c1=O [Example 1, Posaconazole Phosphate Monocholinate] = met
CC[C@@H]([C@H](C)OP(=O)(O)O)n1ncn(-c2ccc(N3CCN(c4ccc(OC[C@@H]5CO[C@@](Cn6cncn6)(c6ccc(F)cc6F)C5)cc4)CC3)cc2)c1=O.N=C(N)NCCC[C@H](N)C(=O)O [Comparative Example 5, Posaconazole Phosphate Monoarginine Salt] = not met

Q: Item CCC(C(C)OP(=O)([O-])[O-])n1ncn(-c2ccc(N3CCN(c4ccc(OCC5COC(Cn6cncn6)(c6ccc(F)cc6F)C5)cc4)CC3)cc2)c1=O.C[N+](C)(C)CCO.C[N+](C)(C)CCO.O.O.O.O.O (stereo not shown) [Comparative Example 2] : Related substance beneath 0.2%, strictly?
Ans: met

Q: Item CC[C@@H]([C@H](C)OP(=O)(O)O)n1ncn(-c2ccc(N3CCN(c4ccc(OC[C@@H]5CO[C@@](Cn6cncn6)(c6ccc(F)cc6F)C5)cc4)CC3)cc2)c1=O [Example 3] : Related substance beneath 0.2%, strictly?
Ans: met

Q: Item CC[C@@H]([C@H](C)OP(=O)([O-])[O-])n1ncn(-c2ccc(N3CCN(c4ccc(OC[C@@H]5CO[C@@](Cn6cncn6)(c6ccc(F)cc6F)C5)cc4)CC3)cc2)c1=O.C[N+](C)(C)CCO.C[N+](C)(C)CCO [Comparative Example 1, Posaconazole Phosphate Bicholinate] : Related substance beneath 0.2%, strictly?
Ans: met

Q: Item CC[C@@H]([C@H](C)OP(=O)([O-])[O-])n1ncn(-c2ccc(N3CCN(c4ccc(OC[C@@H]5CO[C@@](Cn6cncn6)(c6ccc(F)cc6F)C5)cc4)CC3)cc2)c1=O.O.O.O.O.O.[Na+].[Na+] [Comparative Example 9] : Related substance beneath 0.2%, strictly?
Ans: not met

Q: Item CC[C@@H]([C@H](C)OP(=O)(O)O)n1ncn(-c2ccc(N3CCN(c4ccc(OC[C@@H]5CO[C@@](Cn6cncn6)(c6ccc(F)cc6F)C5)cc4)CC3)cc2)c1=O.CNC[C@H](O)[C@@H](O)[C@H](O)[C@H](O)CO [Comparative Example 4] : Related substance beneath 0.2%, strictly?
Ans: not met
